System: Tick-borne encephalitis virus
experimental.details: Antiviral activity against Tick-borne encephalitis virus infected in pig PEK cells assessed as reduction in virus plaque formation preincubated with virus for 1 hr followed by cell infection and measured after 1 hr by crystal violet staining based assay
Assay type: functional, organism-based
measured.attribute: EC50 (µM)
Unit µM implied. Number only.

The measured EC50 associated with `CCCCCCCCOc1ccc2c(c1)N(C)c1nc(=O)n([C@H]3C[C@H](O)[C@@H](CO)O3)cc1O2` reads 22

The measured EC50 associated with `O=c1nc2c(cn1COCCO)Oc1ccccc1N2` reads 23.6

The measured EC50 associated with `CCCCCCCCCCOc1ccc2c(c1)N(C)c1nc(=O)n([C@H]3C[C@H](O)[C@@H](CO)O3)cc1O2` reads 5.4

###

System: SARS-CoV-2
experimental.details: Antiviral activity against SARS COV-2 infected in monkey vero cells assessed as reduction in virus-induced cytopathic effect preincubated with virus for 1 hr followed by cell infection and measured after 5 days by microscopic analysis
Format: functional, organism-based
stated.conditions: Severe acute respiratory syndrome coronavirus 2, Vero
measured.attribute: EC50 (µM)
Unit µM implied. Number only.

The measured EC50 associated with `NCCOc1cccc2c1Nc1nc(=O)n([C@H]3C[C@H](O)[C@@H](CO)O3)cc1O2` reads 1.12

The measured EC50 associated with O=c1nc(NO)ccn1[C@@H]1O[C@H](CO)[C@@H](O)[C@H]1O [N-HYDROXYCYTIDINE] reads 7.4

###

experimental.details: Selectivity index, ratio of CC50 for human Hep2 cells to EC50 for Respiratory syncytial virus
Format: toxicity
stated.conditions: read-out: Ratio CC50/EC50
measured.attribute: selectivity ratio

The measured selectivity ratio associated with `O=c1nc2c(cn1[C@H]1C=C[C@@H](O)C1)Oc1ccccc1N2` reads 7

###

experimental.details: Selectivity index, ratio of CC50 for dog MDCK cells to EC50 for Influenza A virus (A/California/07/09(H1N1)) infected in MDCK cells
Format: toxicity, cell-based
stated.conditions: read-out: Ratio CC50/EC50
measured.attribute: selectivity ratio

The measured selectivity ratio associated with `CCCCCCCCCCOc1ccc2c(c1)Nc1nc(=O)n([C@H]3C[C@H](O)[C@@H](CO)O3)cc1O2` reads > 29

###

experimental.details: Selectivity index, ratio of CC50 for pig PEK cells to EC50 for Antiviral activity against Omsk hemorrhagic fever virus infected in pig PEK cells
Format: toxicity, cell-based
stated.conditions: read-out: Ratio CC50/EC50
Field: selectivity ratio. Provide a value for each of the compounds that follow.

The measured selectivity ratio associated with `CN1c2ccccc2Oc2cn(COCCO)c(=O)nc21` reads > 22

The measured selectivity ratio associated with `COc1ccc(C(OCCOCn2cc3c(nc2=O)Nc2ccccc2O3)(c2ccccc2)c2ccc(OC)cc2)cc1` reads > 4

The measured selectivity ratio associated with `O=c1nc2c(cn1COCCO)Oc1ccccc1N2` reads > 13

The measured selectivity ratio associated with `COc1ccc(C(OCCOCn2cc3c(nc2=O)N(C)c2ccccc2O3)(c2ccccc2)c2ccc(OC)cc2)cc1` reads > 32

###

Field: EC50. Provide a value for each of the compounds that follow.
System: Human betaherpesvirus 5
experimental.details: Antiviral activity against Human cytomegalovirus Davis
Format: functional, organism-based
stated.conditions: Human betaherpesvirus 5, Davis
Unit µM implied. Number only.

The measured EC50 associated with `CCCCCCCCCCOc1ccc2c(c1)Nc1nc(=O)n([C@H]3C[C@H](O)[C@@H](CO)O3)cc1O2` reads 10.4

The measured EC50 associated with `COc1ccc(C(OCCOCn2cc3c(nc2=O)N(C)c2ccccc2O3)(c2ccccc2)c2ccc(OC)cc2)cc1` reads 44.7

The measured EC50 associated with `Nc1nc(O)c2ncn(COC(CO)CO)c2n1` reads 1.79

The measured EC50 associated with `CCCCCCCCOc1ccc2c(c1)Nc1nc(=O)n([C@H]3C[C@H](O)[C@@H](CO)O3)cc1O2` reads 42.3

The measured EC50 associated with `Nc1ccn(C[C@@H](CO)OCP(=O)(O)O)c(=O)n1` reads 0.61

The measured EC50 associated with `CCCCCCCCCCOc1ccc2c(c1)N(C)c1nc(=O)n([C@H]3C[C@H](O)[C@@H](CO)O3)cc1O2` reads 20

###

Field: CC50. Provide a value for each of the compounds that follow.
experimental.details: Cytotoxicity in pig PEK cells assessed as reduction in cell viability measured after 5 days by resazurin dye based assay
Design: species or system Sus scrofa, Kidney
stated.conditions: 120 h, time 5 day

The measured CC50 associated with `Nc1onc(C(=O)OCC23CC4CC(CC(C4)C2)C3)c1CCc1ccccc1` reads > 100 µM

The measured CC50 associated with `COc1ccc(C(OCCOCn2cc3c(nc2=O)Nc2ccccc2O3)(c2ccccc2)c2ccc(OC)cc2)cc1` reads > 100 µM

The measured CC50 associated with `CN1c2ccccc2Oc2cn(COCCO)c(=O)nc21` reads > 100 µM

The measured CC50 associated with `CCCCCCCCCCOc1ccc2c(c1)N(C)c1nc(=O)n([C@H]3C[C@H](O)[C@@H](CO)O3)cc1O2` reads 79 µM

The measured CC50 associated with `CN1c2ccccc2Oc2cn([C@H]3C[C@H](O)[C@@H](CO)O3)c(=O)nc21` reads > 100 µM

The measured CC50 associated with `CCCCCCCCOc1ccc2c(c1)Nc1nc(=O)n([C@H]3C[C@H](O)[C@@H](CO)O3)cc1O2` reads > 100 µM

The measured CC50 associated with `CCCCCCCCCCOc1ccc2c(c1)Nc1nc(=O)n([C@H]3C[C@H](O)[C@@H](CO)O3)cc1O2` reads > 100 µM

The measured CC50 associated with `O=c1nc2c(cn1COCCO)Oc1ccccc1N2` reads > 100 µM

The measured CC50 associated with `CCCCCCCCOc1ccc2c(c1)N(C)c1nc(=O)n([C@H]3C[C@H](O)[C@@H](CO)O3)cc1O2` reads > 100 µM

The measured CC50 associated with `CCCCCCCCCOc1ccc2c(c1)Nc1nc(=O)n([C@H]3C[C@H](O)[C@@H](CO)O3)cc1O2` reads > 100 µM

The measured CC50 associated with `CCCCCCCCCOc1ccc2c(c1)N(C)c1nc(=O)n([C@H]3C[C@H](O)[C@@H](CO)O3)cc1O2` reads > 100 µM

The measured CC50 associated with `COc1ccc(C(OCCOCn2cc3c(nc2=O)N(C)c2ccccc2O3)(c2ccccc2)c2ccc(OC)cc2)cc1` reads > 100 µM

###

Tested on: Tick-borne encephalitis virus
experimental.details: Antiviral activity against Tick-borne encephalitis virus infected in pig PEK cells assessed as reduction in virus plaque formation preincubated with virus for 1 hr followed by cell infection and measured after 1 hr by crystal violet staining based assay
Assay type: functional, organism-based
measured.attribute: EC50 (µM)
Unit µM implied. Number only.

Measured EC50 (Tick-borne encephalitis virus), entry `Nc1onc(C(=O)OCC23CC4CC(CC(C4)C2)C3)c1CCc1ccccc1` : 4

Measured EC50 (Tick-borne encephalitis virus), entry `COc1ccc(C(OCCOCn2cc3c(nc2=O)Nc2ccccc2O3)(c2ccccc2)c2ccc(OC)cc2)cc1` : 36

Measured EC50 (Tick-borne encephalitis virus), entry `CCCCCCCCCOc1ccc2c(c1)Nc1nc(=O)n([C@H]3C[C@H](O)[C@@H](CO)O3)cc1O2` : 5.3

Measured EC50 (Tick-borne encephalitis virus), entry `CCCCCCCCCOc1ccc2c(c1)N(C)c1nc(=O)n([C@H]3C[C@H](O)[C@@H](CO)O3)cc1O2` : 2.53

Measured EC50 (Tick-borne encephalitis virus), entry `CCCCCCCCOc1ccc2c(c1)Nc1nc(=O)n([C@H]3C[C@H](O)[C@@H](CO)O3)cc1O2` : 2.8

Measured EC50 (Tick-borne encephalitis virus), entry `CCCCCCCCCCOc1ccc2c(c1)Nc1nc(=O)n([C@H]3C[C@H](O)[C@@H](CO)O3)cc1O2` : 40

Measured EC50 (Tick-borne encephalitis virus), entry `CN1c2ccccc2Oc2cn([C@H]3C[C@H](O)[C@@H](CO)O3)c(=O)nc21` : 40

Measured EC50 (Tick-borne encephalitis virus), entry `COc1ccc(C(OCCOCn2cc3c(nc2=O)N(C)c2ccccc2O3)(c2ccccc2)c2ccc(OC)cc2)cc1` : 16

Measured EC50 (Tick-borne encephalitis virus), entry `CN1c2ccccc2Oc2cn(COCCO)c(=O)nc21` : 16

###

System: Human alphaherpesvirus 3
experimental.details: Antiviral activity against Varicella zoster virus assessed as inhibition of viral replication
Type: functional, organism-based
measured.attribute: EC50 (nM)
Unit nM implied. Number only.

The measured EC50 associated with `CCCCCCCc1cc2cn([C@H]3C[C@H](O)[C@@H](CO)O3)c(=O)nc2o1` reads 27

The measured EC50 associated with `Nc1nc2c(ncn2COCCO)c(=O)[nH]1` reads 9

The measured EC50 associated with `O=c1[nH]c(=O)n([C@H]2C[C@H](O)[C@@H](CO)O2)cc1/C=C/Br` reads 3400
